Known inhibition at 5 mg/kg of a selection of molecules
biological target: MAGL (Mus musculus, UniProt O35678); construct: from tissue; host or cells: brain of wild-type C57Bl/6J mice; assay: Mouse brain proteomes from inhibitor treated mice (oral gavage, brain proteomes analyzed 4 h after administration); assay type: in vivo, mouse (C57Bl/6J); settings: brain proteome 4 h after administration, read-out: % Inh 5 mg/kg MGLL (Mouse)
Sequence (O35678 whole entry): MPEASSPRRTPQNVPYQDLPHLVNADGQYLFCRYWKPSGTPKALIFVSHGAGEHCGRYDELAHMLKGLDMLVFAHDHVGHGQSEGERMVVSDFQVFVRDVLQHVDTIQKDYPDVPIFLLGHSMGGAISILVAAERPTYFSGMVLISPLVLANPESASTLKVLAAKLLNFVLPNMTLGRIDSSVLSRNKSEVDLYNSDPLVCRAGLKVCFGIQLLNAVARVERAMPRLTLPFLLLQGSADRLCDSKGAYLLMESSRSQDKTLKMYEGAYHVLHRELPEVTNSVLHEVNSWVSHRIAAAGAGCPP

Some solved entries appear below for comparison.
[
  {
    "molecule": "O=C(OC(C(F)(F)F)C(F)(F)F)N1CCC2(CC1)CN(Cc1c(Cl)cccc1N1CCCCC1)C2 [Example 45]",
    "test.system": "MAGL (Mus musculus, UniProt O35678)",
    "inhibition at 5 mg/kg": "≥ 75%"
  },
  {
    "molecule": "CC(=O)N1CCC2(CC1)CCN(c1cc(C(F)(F)F)ccc1CN1CCN(C(=O)OC(C(F)(F)F)C(F)(F)F)CC1)C2 [Example 197]",
    "test.system": "MAGL (Mus musculus, UniProt O35678)",
    "inhibition at 5 mg/kg": "≤ 25%"
  },
  {
    "molecule": "O=C(O)C1CCN(c2cc(CN3CC4(CCN(C(=O)OC(C(F)(F)F)C(F)(F)F)CC4)C3)cc(C(F)(F)F)c2)CC1 [Example 99]",
    "test.system": "MAGL (Mus musculus, UniProt O35678)",
    "inhibition at 5 mg/kg": "25 to 75%"
  }
]

Query: Give its inhibition at 5 mg/kg value. Item: CC(C)(C#Cc1c(Cl)cccc1CN1CCCC12CCN(C(=O)OC(C(F)(F)F)C(F)(F)F)CC2)C(=O)O [Example 1]
Response: 25 to 75%

---

Recorded IC50 by entry
molecular target: MGLL (Mus musculus, UniProt O35678); construct: Brain; from tissue; host or cells: mouse brain proteome; assay: In vitro competitive activity-based protein profiling, mouse brain proteome; assay type: biochemical

# count of solved cases: 4
[
  {
    "compound": "CC(=O)N1CCC2(CC1)CCN(c1cc(Cl)ccc1CN1CCN(C(=O)OC(C(F)(F)F)C(F)(F)F)CC1)C2",
    "assay.readout": "IC50",
    "val": "< 100 nM"
  },
  {
    "compound": "CC(=O)N1CC2CN(c3cc(Cl)ccc3CN3CCN(C(=O)OC(C(F)(F)F)C(F)(F)F)CC3)CC2C1 (centres unmarked)",
    "assay.readout": "IC50",
    "val": "100 to 1000 nM"
  },
  {
    "compound": "CS(=O)(=O)N1CCC2(CCN(c3cc(CN4CCCC45CN(C(=O)OC(C(F)(F)F)C(F)(F)F)C5)cc(C(F)(F)F)c3)CC2)C1",
    "assay.readout": "IC50",
    "val": "< 100 nM"
  },
  {
    "compound": "CS(=O)(=O)N1CCC2(CCN(c3cccc(Cl)c3CN3CC4(CCN(C(=O)OC(C(F)(F)F)C(F)(F)F)CC4)C3)CC2)C1",
    "assay.readout": "IC50",
    "val": "< 100 nM"
  }
]

Next item in the queue.
Query: Name the reported IC50 value associated with the compound CC(=O)N1CC2(CCN(c3cc(C(F)(F)F)ccc3CN3CCN(C(=O)OC(C(F)(F)F)C(F)(F)F)CC3)CC2)C1
Response: < 100 nM

These measurements were taken from patent US20210214375A1.
